Where do these numbers come from? They come from patent US7863465B2.

Biological target: glucan synthase (GS) prepared from Candida albicans MY1055 (Candida albicans)
Construct: Extraction of GS activity from membranes was performed at a protein concentration of 5 mg/mL in extraction buffer; endogenous in cells
Sequence (O13428 1-1897): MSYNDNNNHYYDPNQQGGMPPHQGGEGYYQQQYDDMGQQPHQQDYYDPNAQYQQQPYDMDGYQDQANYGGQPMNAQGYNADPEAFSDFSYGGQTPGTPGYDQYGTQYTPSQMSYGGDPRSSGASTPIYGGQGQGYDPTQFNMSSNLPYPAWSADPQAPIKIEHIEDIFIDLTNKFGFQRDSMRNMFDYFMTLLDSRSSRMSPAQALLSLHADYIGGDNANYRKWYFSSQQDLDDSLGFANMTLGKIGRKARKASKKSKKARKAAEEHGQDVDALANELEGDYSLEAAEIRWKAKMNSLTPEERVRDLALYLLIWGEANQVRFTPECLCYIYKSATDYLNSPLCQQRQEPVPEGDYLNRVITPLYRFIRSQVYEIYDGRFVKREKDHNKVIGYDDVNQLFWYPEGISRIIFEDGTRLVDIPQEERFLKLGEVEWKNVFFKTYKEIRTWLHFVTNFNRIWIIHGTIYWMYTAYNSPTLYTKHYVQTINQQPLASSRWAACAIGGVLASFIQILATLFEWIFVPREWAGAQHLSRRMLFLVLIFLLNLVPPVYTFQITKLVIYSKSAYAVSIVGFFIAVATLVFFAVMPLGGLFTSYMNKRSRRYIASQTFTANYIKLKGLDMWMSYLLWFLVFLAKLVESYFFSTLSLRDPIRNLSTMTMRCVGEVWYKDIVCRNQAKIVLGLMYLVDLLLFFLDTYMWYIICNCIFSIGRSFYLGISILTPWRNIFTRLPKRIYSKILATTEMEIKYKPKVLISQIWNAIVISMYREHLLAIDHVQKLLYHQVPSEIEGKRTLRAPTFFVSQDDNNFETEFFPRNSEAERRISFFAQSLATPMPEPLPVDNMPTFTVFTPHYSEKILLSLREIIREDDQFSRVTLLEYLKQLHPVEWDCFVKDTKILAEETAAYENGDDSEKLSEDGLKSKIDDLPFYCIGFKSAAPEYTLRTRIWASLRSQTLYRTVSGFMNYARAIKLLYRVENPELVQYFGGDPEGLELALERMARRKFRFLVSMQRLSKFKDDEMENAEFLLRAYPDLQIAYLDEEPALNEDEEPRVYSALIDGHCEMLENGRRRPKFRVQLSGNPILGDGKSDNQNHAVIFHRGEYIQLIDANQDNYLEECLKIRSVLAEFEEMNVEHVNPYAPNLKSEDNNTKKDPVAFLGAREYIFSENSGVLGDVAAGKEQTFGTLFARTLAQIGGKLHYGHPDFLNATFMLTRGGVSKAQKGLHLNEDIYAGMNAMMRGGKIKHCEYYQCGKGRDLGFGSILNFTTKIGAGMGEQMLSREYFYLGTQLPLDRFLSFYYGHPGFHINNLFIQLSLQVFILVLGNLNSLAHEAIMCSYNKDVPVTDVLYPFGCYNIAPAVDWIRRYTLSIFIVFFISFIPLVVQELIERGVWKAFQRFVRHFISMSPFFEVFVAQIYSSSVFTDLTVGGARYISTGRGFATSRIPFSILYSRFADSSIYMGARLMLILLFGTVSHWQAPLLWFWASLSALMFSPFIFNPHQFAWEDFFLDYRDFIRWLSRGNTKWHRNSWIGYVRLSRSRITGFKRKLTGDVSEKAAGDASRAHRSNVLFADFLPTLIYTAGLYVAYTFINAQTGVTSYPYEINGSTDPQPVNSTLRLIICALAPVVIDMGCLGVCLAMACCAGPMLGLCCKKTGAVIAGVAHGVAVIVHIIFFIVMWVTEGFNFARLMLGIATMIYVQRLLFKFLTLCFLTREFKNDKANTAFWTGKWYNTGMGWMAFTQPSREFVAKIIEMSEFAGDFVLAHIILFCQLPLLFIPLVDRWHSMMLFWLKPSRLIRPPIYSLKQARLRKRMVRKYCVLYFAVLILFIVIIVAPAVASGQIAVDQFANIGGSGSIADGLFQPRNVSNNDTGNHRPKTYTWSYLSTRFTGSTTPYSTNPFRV
Sequence (O42825 whole entry partner): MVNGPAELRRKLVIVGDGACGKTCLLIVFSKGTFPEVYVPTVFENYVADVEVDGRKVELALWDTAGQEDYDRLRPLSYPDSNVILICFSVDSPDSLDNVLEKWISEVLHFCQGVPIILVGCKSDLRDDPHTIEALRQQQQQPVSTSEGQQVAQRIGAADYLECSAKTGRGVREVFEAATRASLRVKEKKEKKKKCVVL
Experiment: Glucan synthase inhibition (polymerization assay, 96-well, 3H-UDPG incorporation)
Conditions: glucan synthase from C. albicans MY1055
What IC50 was measured for each of the following?
Just the number in nM, nothing appended.

Asked: Looking for the measured IC50 of CC(=O)O[C@@H]1C[C@@]23COC[C@](C)([C@@H]2CC[C@H]2C3=CC[C@@]3(C)[C@H](C(=O)O)[C@@](C)([C@H](C)C(C)C)CC[C@]23C)[C@H]1OCCNC(=N)N , can you help?
Given back: 19.5

Asked: Looking for the measured IC50 of CC(=O)O[C@@H]1C[C@@]23COC[C@@](C)([C@@H]2CC[C@H]2C3=CC(=O)[C@@]3(C)[C@H](C(=O)O)[C@@](C)([C@H](C)C(C)C)CC[C@]23C)[C@H]1OC[C@](C)(C(C)C)N(C)C , can you help?
Given back: 20.8

Asked: Looking for the measured IC50 of CC(=O)O[C@@H]1C[C@@]23COC[C@](C)([C@@H]2CC[C@H]2C3=CC(=O)[C@@]3(C)[C@H](C(=O)O)[C@@](C)([C@H](C)C(C)C)CC[C@]23C)[C@H]1OCCCN , can you help?
Given back: 155

Asked: Looking for the measured IC50 of CC(=O)O[C@@H]1C[C@@]23COC[C@@](C)([C@@H]2CC[C@H]2C3=CC(=O)[C@@]3(C)[C@H](C(=O)O)[C@@](C)([C@H](C)C(C)C)CC[C@]23C)[C@H]1OCC(C)(C)N(C)C , can you help?
Given back: 80.8

Asked: Looking for the measured IC50 of CC(=O)O[C@@H]1C[C@@]23COC[C@](C)([C@@H]2CC[C@H]2C3=CC[C@@]3(C)[C@H](C(=O)O)[C@@](C)([C@H](C)C(C)C)CC[C@]23C)[C@H]1OCCNC(=O)C(N)CN (stereo partly drawn) , can you help?
Given back: 126

Asked: Looking for the measured IC50 of CN[C@@](C)(CO[C@H]1[C@H](OC(C)=O)C[C@@]23COC[C@]1(C)[C@@H]2CC[C@H]1C3=CC(=O)[C@@]2(C)[C@H](C(=O)O)[C@@](C)([C@H](C)C(C)C)CC[C@]12C)C(C)C , can you help?
Given back: 13.7

Asked: Looking for the measured IC50 of CC(=O)O[C@@H]1C[C@@]23COC[C@@](C)([C@@H]2CC[C@H]2C3=CC[C@@]3(C)[C@H](C(=O)O)[C@@](C)([C@H](C)C(C)C)CC[C@]23C)[C@H]1OCCCN , can you help?
Given back: 47.6

Asked: Looking for the measured IC50 of CC(=O)O[C@@H]1C[C@@]23COC[C@](C)([C@@H]2CC[C@H]2C3=CC[C@@]3(C)[C@H](C(=O)O)[C@@](C)([C@H](C)C(C)C)CC[C@]23C)[C@H]1OCCN , can you help?
Given back: 81.9

Asked: Looking for the measured IC50 of CC(=O)O[C@@H]1C[C@@]23COC[C@](C)([C@@H]2CC[C@H]2C3=CC(=O)[C@@]3(C)[C@H](C(=O)O)[C@@](C)([C@H](C)C(C)C)CC[C@]23C)[C@H]1OCCN , can you help?
Given back: 78.3
